substrate: CCCCCC(=O)N[C@H]1CCOC1=O; assay: purified protein; format: biochemical, Parageobacillus caldoxylosilyticus; settings: pH 8.3, 25 °C, 2.5 mM bicine, 150 mM NaCl, 0.2 mM CoCl2
Each entry below lists one item and its recorded kcat/Km value.
Metric Name: kcat/Km (M⁻¹ s⁻¹)

{"Protein": "GcL (Parageobacillus caldoxylosilyticus NBRC 107762; D121N) (protein, expressed in E. coli BL21(DE3)-pGro7/GroEL with CoCl2; bimetallic Fe/Co centre; dimer) MANVIKARPKLYVMDNGRMRMDKNWMIAMHNPATIHNPNAQTEFVEFPIYTVLIDHPEGKILFDTSCNPNSMGPQGRWAESTQQMFPWTATEECYLHNRLEQLKVRPEDIRYVVASHLHLNHAGCLEMFTNATIIVHEDEFNGALQCYARNQKEGAYIWADIDAWIKNNLQWRTVKRHEDNILLAEGVKVLNFGSGHAWGMLGLHVELPETGGIILASDAIYTAESYGPPIKPPGIIYDSLGYMNTVERIRRIAQETKSQVWFGHDAEQFKKFRKSTEGYYE", "Metric Name": "kcat/Km", "Result": 200000}
{"Protein": "GcL (Parageobacillus caldoxylosilyticus NBRC 107762; I236M) (protein, expressed in E. coli BL21(DE3)-pGro7/GroEL with CoCl2; bimetallic Fe/Co centre; dimer) MANVIKARPKLYVMDNGRMRMDKNWMIAMHNPATIHNPNAQTEFVEFPIYTVLIDHPEGKILFDTSCNPNSMGPQGRWAESTQQMFPWTATEECYLHNRLEQLKVRPEDIRYVVASHLHLDHAGCLEMFTNATIIVHEDEFNGALQCYARNQKEGAYIWADIDAWIKNNLQWRTVKRHEDNILLAEGVKVLNFGSGHAWGMLGLHVELPETGGIILASDAIYTAESYGPPIKPPGMIYDSLGYMNTVERIRRIAQETKSQVWFGHDAEQFKKFRKSTEGYYE", "Metric Name": "kcat/Km", "Result": 399000}
{"Protein": "GcL (Parageobacillus caldoxylosilyticus NBRC 107762; G155P) (protein, expressed in E. coli BL21(DE3)-pGro7/GroEL with CoCl2; bimetallic Fe/Co centre; dimer) MANVIKARPKLYVMDNGRMRMDKNWMIAMHNPATIHNPNAQTEFVEFPIYTVLIDHPEGKILFDTSCNPNSMGPQGRWAESTQQMFPWTATEECYLHNRLEQLKVRPEDIRYVVASHLHLDHAGCLEMFTNATIIVHEDEFNGALQCYARNQKEPAYIWADIDAWIKNNLQWRTVKRHEDNILLAEGVKVLNFGSGHAWGMLGLHVELPETGGIILASDAIYTAESYGPPIKPPGIIYDSLGYMNTVERIRRIAQETKSQVWFGHDAEQFKKFRKSTEGYYE", "Metric Name": "kcat/Km", "Result": 4340}

Every entry's value here was drawn from paper PMC11423328.
